target: Epidermal growth factor receptor (Homo sapiens, UniProt P00533, L858R); experiment: Inhibition of EGFR L858R mutant (unknown origin)
Sequence (P00533 25-1210 L858R limits assumed): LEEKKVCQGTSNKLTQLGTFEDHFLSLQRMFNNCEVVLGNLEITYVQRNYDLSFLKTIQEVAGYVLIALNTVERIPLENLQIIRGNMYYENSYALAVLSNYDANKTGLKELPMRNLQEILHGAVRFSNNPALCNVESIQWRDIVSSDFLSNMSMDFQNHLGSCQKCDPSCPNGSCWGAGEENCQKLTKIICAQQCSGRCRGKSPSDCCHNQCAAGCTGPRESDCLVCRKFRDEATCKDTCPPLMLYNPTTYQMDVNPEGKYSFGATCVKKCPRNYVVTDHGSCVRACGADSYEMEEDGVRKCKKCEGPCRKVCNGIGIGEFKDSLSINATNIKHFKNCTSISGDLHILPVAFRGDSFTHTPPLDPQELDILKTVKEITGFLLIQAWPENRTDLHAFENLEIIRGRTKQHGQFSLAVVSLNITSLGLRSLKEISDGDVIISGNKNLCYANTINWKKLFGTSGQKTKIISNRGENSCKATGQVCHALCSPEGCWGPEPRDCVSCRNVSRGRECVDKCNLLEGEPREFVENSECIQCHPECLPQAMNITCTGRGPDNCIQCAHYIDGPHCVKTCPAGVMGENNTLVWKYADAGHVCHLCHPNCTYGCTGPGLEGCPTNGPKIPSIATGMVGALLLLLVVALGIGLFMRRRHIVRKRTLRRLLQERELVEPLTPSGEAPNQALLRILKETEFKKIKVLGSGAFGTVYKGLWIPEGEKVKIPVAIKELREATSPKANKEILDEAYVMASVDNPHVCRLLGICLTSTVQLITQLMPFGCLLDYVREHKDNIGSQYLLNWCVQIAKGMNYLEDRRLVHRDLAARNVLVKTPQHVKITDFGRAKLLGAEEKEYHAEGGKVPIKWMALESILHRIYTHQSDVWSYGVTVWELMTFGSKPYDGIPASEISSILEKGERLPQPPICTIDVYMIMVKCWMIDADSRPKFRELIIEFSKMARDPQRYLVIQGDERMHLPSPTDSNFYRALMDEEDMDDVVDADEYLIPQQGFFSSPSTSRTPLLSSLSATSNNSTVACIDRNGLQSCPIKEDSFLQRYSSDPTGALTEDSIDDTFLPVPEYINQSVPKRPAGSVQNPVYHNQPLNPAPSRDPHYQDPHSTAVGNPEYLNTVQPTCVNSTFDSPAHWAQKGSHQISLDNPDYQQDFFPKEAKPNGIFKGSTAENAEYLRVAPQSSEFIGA
Experimental endpoint: IC50 (nM)
One number for each entry, in nM.

For reference, reported IC50 for C=CC(=O)Nc1ccc(CN(C(=O)Nc2c(Cl)c(OC)cc(OC)c2Cl)c2cc(Nc3ccc(N4CCN(C)CC4)cc3)ncn2)cc1 stands at 16.8

====

target: Fibroblast growth factor receptor 4 (Homo sapiens); assay: Inhibition of human N-terminal GST-tagged FGFR4 cytoplasmic domain (460 to 802 end residues) expressed in baculovirus expression system using CSKtide as substrate after 90 mins
Sequence (P22455 whole entry, the tested form may be a part): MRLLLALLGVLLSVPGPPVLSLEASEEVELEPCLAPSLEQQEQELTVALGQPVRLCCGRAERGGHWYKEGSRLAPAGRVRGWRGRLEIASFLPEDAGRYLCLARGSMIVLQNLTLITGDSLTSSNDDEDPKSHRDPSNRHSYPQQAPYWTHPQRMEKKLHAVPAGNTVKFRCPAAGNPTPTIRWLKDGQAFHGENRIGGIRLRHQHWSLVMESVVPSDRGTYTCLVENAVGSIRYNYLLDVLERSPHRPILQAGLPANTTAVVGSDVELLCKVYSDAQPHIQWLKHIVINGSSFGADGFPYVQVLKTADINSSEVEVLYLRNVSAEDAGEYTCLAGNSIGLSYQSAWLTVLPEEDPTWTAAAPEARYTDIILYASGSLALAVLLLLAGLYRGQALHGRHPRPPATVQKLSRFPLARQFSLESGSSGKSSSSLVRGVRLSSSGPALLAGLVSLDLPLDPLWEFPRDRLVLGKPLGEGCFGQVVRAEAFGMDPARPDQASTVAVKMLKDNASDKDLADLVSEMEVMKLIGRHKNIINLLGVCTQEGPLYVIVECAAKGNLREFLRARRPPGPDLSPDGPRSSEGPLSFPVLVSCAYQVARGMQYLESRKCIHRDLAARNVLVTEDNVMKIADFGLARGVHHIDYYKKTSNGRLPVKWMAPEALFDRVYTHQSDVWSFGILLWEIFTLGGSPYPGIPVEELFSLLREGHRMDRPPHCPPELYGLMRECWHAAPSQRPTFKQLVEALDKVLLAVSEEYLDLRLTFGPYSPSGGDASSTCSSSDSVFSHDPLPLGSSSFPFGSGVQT
Experimental endpoint: pIC50
Give bare numbers, as −log10 of the molar value.

Value of measured pIC50 for the entry C=CC(N)=O [ACRYLAMIDE] : 6.03

====

biological target: Fibroblast growth factor receptor 1 (Homo sapiens, UniProt P11362); test: Inhibition of FGFR1 (unknown origin)
Sequence (P11362 whole entry, the tested form may be a part): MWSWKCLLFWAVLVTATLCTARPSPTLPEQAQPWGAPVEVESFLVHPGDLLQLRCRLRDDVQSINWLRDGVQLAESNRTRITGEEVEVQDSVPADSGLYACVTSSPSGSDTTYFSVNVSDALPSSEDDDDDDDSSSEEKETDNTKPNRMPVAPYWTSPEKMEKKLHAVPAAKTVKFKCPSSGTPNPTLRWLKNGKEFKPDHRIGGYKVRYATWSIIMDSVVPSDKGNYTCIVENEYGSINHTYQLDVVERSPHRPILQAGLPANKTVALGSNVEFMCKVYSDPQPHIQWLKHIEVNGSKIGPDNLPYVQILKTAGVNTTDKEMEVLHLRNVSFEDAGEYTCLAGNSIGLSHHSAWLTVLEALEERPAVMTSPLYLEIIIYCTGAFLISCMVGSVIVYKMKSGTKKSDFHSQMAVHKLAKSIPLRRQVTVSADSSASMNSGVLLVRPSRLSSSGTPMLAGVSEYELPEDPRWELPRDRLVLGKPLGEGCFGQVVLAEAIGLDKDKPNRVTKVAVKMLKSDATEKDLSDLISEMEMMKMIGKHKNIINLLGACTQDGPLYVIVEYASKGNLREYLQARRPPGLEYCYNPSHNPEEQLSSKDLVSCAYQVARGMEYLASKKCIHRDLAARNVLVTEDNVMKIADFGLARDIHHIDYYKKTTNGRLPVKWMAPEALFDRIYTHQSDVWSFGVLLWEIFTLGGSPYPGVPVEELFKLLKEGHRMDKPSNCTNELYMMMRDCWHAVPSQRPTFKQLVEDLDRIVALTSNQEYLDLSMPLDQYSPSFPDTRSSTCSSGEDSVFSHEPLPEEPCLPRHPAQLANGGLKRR
Experimental endpoint: EC50 (nM)
One number for each entry, in nM.

C=CC(=O)Nc1ccc(CN(C(=O)Nc2c(Cl)c(OC)cc(OC)c2Cl)c2cc(Nc3ccc(N4CCN(C)CC4)cc3)ncn2)cc1 1

Now turn to the next molecule.
GET /values?item= C=CC(=O)Nc1ccc(CN2C(=O)N(c3cc(OC)cc(OC)c3)Cc3cnc(Nc4ccc(N5CCN(C)CC5)cc4)nc32)cc1 &system= Fibroblast growth factor receptor 1 (Homo sapiens, UniProt P11362) returns EC50: 1

====

target: Fibroblast growth factor receptor 2 (Homo sapiens, UniProt P21802, V564M); test: Inhibition of FGFR2 V564M mutant (unknown origin)
Sequence (P21802 22-821 V564M limits assumed): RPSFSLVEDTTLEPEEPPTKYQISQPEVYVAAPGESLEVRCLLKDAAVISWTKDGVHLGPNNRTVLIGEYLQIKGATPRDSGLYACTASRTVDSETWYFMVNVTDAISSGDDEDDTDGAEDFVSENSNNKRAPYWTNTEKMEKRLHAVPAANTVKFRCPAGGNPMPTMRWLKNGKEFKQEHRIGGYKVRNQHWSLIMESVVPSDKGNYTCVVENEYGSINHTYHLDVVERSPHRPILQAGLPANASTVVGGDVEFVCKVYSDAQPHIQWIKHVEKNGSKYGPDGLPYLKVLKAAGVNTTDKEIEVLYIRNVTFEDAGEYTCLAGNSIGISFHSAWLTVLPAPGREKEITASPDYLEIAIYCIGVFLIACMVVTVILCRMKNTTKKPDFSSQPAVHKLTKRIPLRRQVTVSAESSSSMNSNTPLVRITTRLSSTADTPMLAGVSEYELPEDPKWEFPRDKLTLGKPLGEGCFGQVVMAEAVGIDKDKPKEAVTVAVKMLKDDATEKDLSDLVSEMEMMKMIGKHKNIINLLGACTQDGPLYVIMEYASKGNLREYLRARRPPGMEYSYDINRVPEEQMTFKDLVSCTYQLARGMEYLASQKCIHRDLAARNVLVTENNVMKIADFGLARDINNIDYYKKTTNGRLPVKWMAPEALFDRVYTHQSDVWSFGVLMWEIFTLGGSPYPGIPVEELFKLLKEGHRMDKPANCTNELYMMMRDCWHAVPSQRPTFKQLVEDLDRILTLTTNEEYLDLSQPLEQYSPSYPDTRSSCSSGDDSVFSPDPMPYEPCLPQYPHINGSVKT
For each entry below, report its pIC50 value.
Numbers only, as −log10 of the molar value.

C=CC(=O)Nc1ccc(CN(C(=O)Nc2c(Cl)c(OC)cc(OC)c2Cl)c2cc(Nc3ccc(N4CCN(C)CC4)cc3)ncn2)cc1 7.19

Now take the following compound into account.
Per the record, C=CC(=O)Nc1ccc(CN2C(=O)N(c3cc(OC)cc(OC)c3)Cc3cnc(Nc4ccc(N5CCN(C)CC5)cc4)nc32)cc1 has pIC50 of 7.24

====

Lab note: pIC50 readings collected with Fibroblast growth factor receptor 3 (Homo sapiens, UniProt P22607) for the following molecules.
Sequence (P22607 whole entry): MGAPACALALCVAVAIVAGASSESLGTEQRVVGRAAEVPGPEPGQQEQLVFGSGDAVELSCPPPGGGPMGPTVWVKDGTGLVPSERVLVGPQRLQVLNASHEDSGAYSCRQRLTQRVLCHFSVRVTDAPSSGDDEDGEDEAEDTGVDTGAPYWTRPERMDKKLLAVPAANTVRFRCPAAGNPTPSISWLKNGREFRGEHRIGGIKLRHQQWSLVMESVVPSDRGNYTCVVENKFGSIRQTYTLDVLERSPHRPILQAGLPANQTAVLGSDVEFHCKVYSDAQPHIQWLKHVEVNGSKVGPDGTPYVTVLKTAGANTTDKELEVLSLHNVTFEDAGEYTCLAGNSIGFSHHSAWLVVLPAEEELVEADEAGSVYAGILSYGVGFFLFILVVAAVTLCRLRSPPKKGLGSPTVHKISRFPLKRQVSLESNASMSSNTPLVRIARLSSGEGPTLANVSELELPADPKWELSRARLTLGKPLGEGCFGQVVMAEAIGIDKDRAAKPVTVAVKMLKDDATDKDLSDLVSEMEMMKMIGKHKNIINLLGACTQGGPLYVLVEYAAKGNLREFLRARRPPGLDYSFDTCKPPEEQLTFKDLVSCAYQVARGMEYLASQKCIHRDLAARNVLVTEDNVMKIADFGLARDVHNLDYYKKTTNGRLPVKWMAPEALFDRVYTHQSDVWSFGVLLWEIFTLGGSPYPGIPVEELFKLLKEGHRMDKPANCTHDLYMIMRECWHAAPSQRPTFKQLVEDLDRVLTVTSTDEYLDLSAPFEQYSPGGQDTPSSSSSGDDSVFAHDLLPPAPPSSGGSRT
Numbers only, as −log10 of the molar value.

C=CC(=O)Nc1ccc(CN(C(=O)Nc2c(Cl)c(OC)cc(OC)c2Cl)c2cc(Nc3ccc(N4CCN(C)CC4)cc3)ncn2)cc1 7.39

Note: attention shifts to another entry.
Given item C=CC(=O)Nc1ccc(CN2C(=O)N(c3cc(OC)cc(OC)c3)Cc3cnc(Nc4ccc(N5CCN(C)CC5)cc4)nc32)cc1 , the value recorded as its pIC50 is 7.03

====

Exercise: state measured IC50 for each of the molecules provided.
target: Fibroblast growth factor receptor 1 (Homo sapiens, UniProt P11362); assay: Inhibition of FGFR1 kinase domain (unknown origin)

O=CN1CCN(c2ccc(/C=C3\C(=O)Nc4ccccc43)cc2)CC1 10 to 20 µM

Now for another entry.
Entry Cc1c[nH]c(/C=C2\C(=O)Nc3ccccc32)c1CCC(=O)O ; IC50 = 10 to 20 µM

====

molecular target: Fibroblast growth factor receptor 2 (Homo sapiens); assay: Inhibition of FGFR2 (unknown origin)
Experimental endpoint: IC50

C=CC(=O)Nc1ccc(CN2C(=O)N(c3cc(OC)cc(OC)c3)Cc3cnc(Nc4ccc(N5CCN(C)CC5)cc4)nc32)cc1 4 nM

Let us examine a further case.
Value of measured IC50 for the entry C=CC(=O)Nc1ccc(CN(C(=O)Nc2c(Cl)c(OC)cc(OC)c2Cl)c2cc(Nc3ccc(N4CCN(C)CC4)cc3)ncn2)cc1 : < 1 nM

All values here come from ChEMBL document CHEMBL3997770.
